tested on: Candida albicans; experiment: Antimicrobial activity against Candida albicans MTCC 183 assessed as growth inhibition after 48 hr by agar streak dilution method; assay type: functional; settings: MTCC 183, 48 h
Here, each record is paired with measured MIC data.
Number only, in µg/mL; omit the unit.

Query block: Using the record for O=C(/C=C/c1ccc(Cl)cc1Cl)c1ccc(Nc2cc(=O)oc3ccccc23)cc1 , report its MIC.
Result block: 100

Please look at the following compound next.
Query block: Look up MIC for this compound: Cc1ccc(-c2cc(-c3ccc(Nc4cc(=O)oc5ccccc45)cc3)nc(N)c2C#N)cc1
Result block: 3.12

====

test system: Proteus vulgaris; assay: Antimicrobial activity against Proteus vulgaris MTCC 1771 assessed as diameter of growth inhibition zone after 24 hr; format: functional
experimental_readout: diameter of the inhibition zone (DIZ) (mm)
Express your answer in mm, writing the number without its unit.

// worked examples, diameter of the inhibition zone (DIZ) included
Query block: Which diameter of the inhibition zone (DIZ) is reported for this compound? COc1ccc(C2CC(c3ccc(Nc4cc(=O)oc5ccccc45)cc3)=NN2C(C)=O)cc1OC (centres undefined)
Result block: 20

Query block: Looking for the measured diameter of the inhibition zone (DIZ) of O=C(/C=C/c1ccc(O)cc1O)c1ccc(Nc2cc(=O)oc3ccccc23)cc1 , can you help?
Result block: 20

New cases:
Query block: Reported diameter of the inhibition zone (DIZ) for O=C(/C=C/c1ccc(Cl)cc1)c1ccc(Nc2cc(=O)oc3ccccc23)cc1 : what is it?
Result block: 17

Query block: Look at this compound and give its reported diameter of the inhibition zone (DIZ). COc1ccc(C2CC(c3ccc(Nc4cc(=O)oc5ccccc45)cc3)=NN2C(C)=O)cc1 (centres undefined)
Result block: 20

Query block: Entry CC(=O)N1N=C(c2ccc(Nc3cc(=O)oc4ccccc34)cc2)CC1c1ccc(O)cc1O (centres undefined) has what diameter of the inhibition zone (DIZ)?
Result block: 22

Query block: What does the data say about its diameter of the inhibition zone (DIZ)? Entry: CC(=O)N1N=C(c2ccc(Nc3cc(=O)oc4ccccc34)cc2)CC1c1ccc(F)cc1 (centres undefined)
Result block: 21

Query block: Recorded diameter of the inhibition zone (DIZ) for N#Cc1c(-c2ccccc2)cc(-c2ccc(Nc3cc(=O)oc4ccccc34)cc2)nc1N , please?
Result block: 19

Query block: Would you kindly share the measured diameter of the inhibition zone (DIZ) for O=C(/C=C/c1ccccc1O)c1ccc(Nc2cc(=O)oc3ccccc23)cc1 ?
Result block: 15
